Form field: MCC (one value per entry).
assay: Toxicity in MDCK cells assessed as induction of cell morphology changes; assay type: cell-based, Canis lupus familiaris; settings: dog

CC(=O)N[C@H]1[C@H](O[C@@H]2c3ccc(c(Cl)c3)Oc3cc4cc(c3O)Oc3ccc(cc3Cl)C[C@H]3NC(=O)[C@H](n5cc6cc7ccccc7cc6c5Sc5ccccc5)c5ccc(O)c(c5)Oc5cc(O)cc(c5)[C@H](NC3=O)C(=O)N[C@H]4C(=O)N[C@H]3C(=O)N[C@@H]2C(=O)N[C@H](C(=O)O)c2cc(O)cc(O)c2-c2cc3ccc2O)O[C@H](CO)[C@@H](O)[C@@H]1O	< 0.8 µM
CC(=O)N[C@H]1[C@H]([C@H](O)[C@H](O)CO)OC(C(=O)O)=C[C@@H]1NC(=N)N [ZANAMIVIR]	> 100 µM

Kindly consider the entry below.
Please report the measured MCC for NC12CC3CC(CC(C3)C1)C2 [AMANTADINE]
≥ 500 µM

Values compiled from ChEMBL document CHEMBL2203009.
